Target: Gastrin-releasing peptide receptor (Rattus norvegicus, UniProt P52500)
Sequence (P52500 whole entry): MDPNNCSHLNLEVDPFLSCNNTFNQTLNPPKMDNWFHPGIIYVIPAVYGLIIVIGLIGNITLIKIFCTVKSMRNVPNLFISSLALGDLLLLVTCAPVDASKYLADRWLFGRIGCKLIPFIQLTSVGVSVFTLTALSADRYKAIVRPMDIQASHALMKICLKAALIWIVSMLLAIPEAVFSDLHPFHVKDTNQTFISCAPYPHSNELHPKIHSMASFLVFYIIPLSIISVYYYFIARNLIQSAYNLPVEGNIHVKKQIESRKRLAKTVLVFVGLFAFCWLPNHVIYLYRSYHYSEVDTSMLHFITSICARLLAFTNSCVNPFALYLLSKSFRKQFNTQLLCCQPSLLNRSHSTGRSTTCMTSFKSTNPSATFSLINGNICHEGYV
Experiment: In vitro binding affinity of [111In]DTPA-[Y4]-bombesin to bombesin receptor in the rat pancreatic acinar cell line, AR42J
MEASUREMENT_KIND: IC50 (nM)
Numeric only. Scale: nM

Supply recorded IC50 for "CSCC[C@H](NC(=O)[C@H](CC(C)C)NC(=O)[C@H](Cc1cnc[nH]1)NC(=O)CNC(=O)[C@@H](NC(=O)[C@H](C)NC(=O)[C@H](Cc1c[nH]c2ccccc12)NC(=O)[C@@H](N)CCC(N)=O)C(C)C)C(N)=O" here.
28.3

---

Measured IC50 values are reported for all entries that follow.
Target: Gastrin-releasing peptide receptor (Rattus norvegicus, UniProt P52500)
Assay: In vitro binding affinity of [111In]DTPA-[Y4]-bombesin to bombesin receptor in the rat pancreatic acinar cell line, AR42J
Numeric only. Scale: nM

CSCC[C@H](NC(=O)[C@H](CC(C)C)NC(=O)[C@H](Cc1c[nH]cn1)NC(=O)CNC(=O)[C@@H](NC(=O)[C@H](C)NC(=O)[C@H](Cc1c[nH]c2ccccc12)NC(=O)[C@H](CCC(N)=O)NC(=O)[C@@H](N)CCCCN)C(C)C)C(N)=O = 10.5

In the following, a different compound is considered.
Supply recorded IC50 for "CSCC[C@H](NC(=O)[C@H](CC(C)C)NC(=O)[C@H](Cc1c[nH]cn1)NC(=O)CNC(=O)[C@@H](NC(=O)[C@H](C)NC(=O)[C@H](Cc1c[nH]c2ccccc12)NC(=O)[C@H](CCC(N)=O)NC(=O)[C@H](CCCCNC(=O)CN1CCN(CC(=O)O)CCN(CC(=O)O)CCN(CC(=O)O)CC1)NC(=S)Nc1ccc2c(c1)C(=O)OC21c2ccc(O)cc2Oc2cc(O)ccc21)C(C)C)C(N)=O" here.
15
